Entry source: ChEMBL document CHEMBL5058577

Population Membrane Permeable-Phenotype (%) reference
Tested on: HEK-293T
Experiment: Multiplex assay against HEK293T
Format: toxicity, cell-based
Settings: human, 48 h, 10 µM, compound concentration 10 uM, replicate 1
Please give a number only; it is taken to be in %.

Please review the following examples before continuing.
# MOLECULE, ENDPOINT VALUE
rows = [
    ("Cc1ccc(C(C)(O)c2nc3ccccc3s2)c(C)c1 (stereo not drawn)", 0),
    ("O=C(O)Cc1ccccc1Nc1c(Cl)cccc1Cl", 1),
    ("CC1(COc2ccc3c(c2)ncn3-c2ccc3cccc(N4CCC(N)CC4)c3n2)COC1", 0),
]

Qu. Could you tell me which Population Membrane Permeable-Phenotype (%) is on file for CN(C)CCCc1cc(C(=O)Nc2ccc(-c3ccncc3)cc2)ccc1O.Cl.Cl ?
Ans. 1

Qu. Could you tell me which Population Membrane Permeable-Phenotype (%) is on file for Cl.Clc1ccc2nsnc2c1NC1=NCCN1 [TIZANIDINE HYDROCHLORIDE] ?
Ans. 1

Qu. Could you tell me which Population Membrane Permeable-Phenotype (%) is on file for CC(=O)O[C@H]1C(=O)[C@@]2(C)[C@H]([C@H](OC(=O)c3ccccc3)[C@]3(O)C[C@H](OC(=O)[C@H](O)[C@@H](NC(=O)c4ccccc4)c4ccccc4)C(C)=C1C3(C)C)[C@]1(OC(C)=O)CO[C@@H]1C[C@@H]2O ?
Ans. 0

Qu. Could you tell me which Population Membrane Permeable-Phenotype (%) is on file for CN1CCN(c2nc3cc(C(F)(F)F)ccc3n3cccc23)CC1.O=C(O)/C=C\C(=O)O.O=C(O)/C=C\C(=O)O ?
Ans. 2

Qu. Could you tell me which Population Membrane Permeable-Phenotype (%) is on file for CC(C)(C)c1ccc(S(=O)(=O)Nc2ccc(Cl)cc2C(=O)c2cc[n+]([O-])cc2)cc1 ?
Ans. 2

====

Tested on: U2OS
Assay: Multiplex assay against U2OS
Format: toxicity, cell-based
Settings: human, 12 h, 1 µM, compound concentration 1 uM, replicate 2
MEASUREMENT KIND: Population Fragmented Nuclei (%)
Please give a number only; it is taken to be in %.

Please review the following examples before continuing.
# COMPOUND, MEASUREMENT KIND, ENDPOINT VALUE
data = [
    ("N#Cc1c(N)nc(SCc2csc(-c3ccc(Cl)cc3)n2)c(C#N)c1-c1ccc(OCCO)cc1", "Population Fragmented Nuclei (%)", 18),
    ("CCOc1c2c(c(OCC)c3ncccc13)CN(c1ccc(CS(=O)(=O)NC(=O)Cc3ccccc3OC)cc1C)C2=O", "Population Fragmented Nuclei (%)", 13),
    ("CCCn1c(=O)c2[nH]c(C3CCCC3)nc2n(CCC)c1=O", "Population Fragmented Nuclei (%)", 15),
    ("CCCN1CCC[C@@H]2Cc3n[nH]cc3C[C@H]21.Cl [QUINPIROLE HYDROCHLORIDE]", "Population Fragmented Nuclei (%)", 21),
    ("CC(=O)NCCc1c(Cc2ccccc2)[nH]c2ccccc12", "Population Fragmented Nuclei (%)", 19),
]

Qu. Could you tell me which Population Fragmented Nuclei (%) is on file for c1cc(OCCCN2CCCCC2)ccc1CN1CCCCC1 ?
Ans. 25

Qu. Could you tell me which Population Fragmented Nuclei (%) is on file for CCCC(CCC)C(=O)O ?
Ans. 14

Qu. Could you tell me which Population Fragmented Nuclei (%) is on file for CC(C)(C)c1ccc(S(=O)(=O)Nc2ccc(Cl)cc2C(=O)c2cc[n+]([O-])cc2)cc1 ?
Ans. 15

Qu. Could you tell me which Population Fragmented Nuclei (%) is on file for CN1CCN(c2nc3cc(C(F)(F)F)ccc3n3cccc23)CC1.O=C(O)/C=C\C(=O)O.O=C(O)/C=C\C(=O)O ?
Ans. 18

Qu. Could you tell me which Population Fragmented Nuclei (%) is on file for C[C@@H]1C[C@H]2[C@@H]3CCC4=CC(=O)C=C[C@]4(C)[C@@]3(F)[C@@H](O)C[C@]2(C)[C@@]1(O)C(=O)CO ?
Ans. 20

Qu. Could you tell me which Population Fragmented Nuclei (%) is on file for Cc1ccc(F)cc1C(=O)Nc1ccc(C(=O)N2Cc3cccn3Cc3ccccc32)c(Cl)c1 ?
Ans. 8

Qu. Could you tell me which Population Fragmented Nuclei (%) is on file for C[C@H](NC(=O)c1c(C(F)F)nn(C)c1Oc1cccc(C(F)(F)F)c1)c1ccc(C(=O)O)cc1 ?
Ans. 12

Qu. Could you tell me which Population Fragmented Nuclei (%) is on file for Cl.Clc1ccc2nsnc2c1NC1=NCCN1 [TIZANIDINE HYDROCHLORIDE] ?
Ans. 10

Qu. Could you tell me which Population Fragmented Nuclei (%) is on file for CN(C)c1ccnc2sc3c(=O)n(N4CCCCCC4)cnc3c12 ?
Ans. 16

Qu. Could you tell me which Population Fragmented Nuclei (%) is on file for Cc1ccccc1C(=O)Nc1ccc(C(=O)N2CCCC(N(C)C)c3ccccc32)cc1.Cl (stereo not drawn) ?
Ans. 14

Qu. Could you tell me which Population Fragmented Nuclei (%) is on file for COc1cc(C(=O)N(CCCc2ccccc2)Cc2ccc(CC(=O)O)cc2)cc(OC)c1C ?
Ans. 23

Qu. Could you tell me which Population Fragmented Nuclei (%) is on file for COc1ccc2c(c1)C(C(=O)N(Cc1ccc(N(C)C)cc1)c1ccc(C(C)C)cc1)CCC2.Cl (stereo not drawn) ?
Ans. 17

Qu. Could you tell me which Population Fragmented Nuclei (%) is on file for CC1(COc2ccc3c(c2)ncn3-c2ccc3cccc(N4CCC(N)CC4)c3n2)COC1 ?
Ans. 28
